- assayTarget: MAGI1_2, Q96QZ7
- Sequence (Q96QZ7 456-580): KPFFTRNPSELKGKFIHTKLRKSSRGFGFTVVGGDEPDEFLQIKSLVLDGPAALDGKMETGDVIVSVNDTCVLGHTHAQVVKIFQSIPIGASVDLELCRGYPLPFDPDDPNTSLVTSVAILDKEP
- assayMethodText: holdup assay
- Set-up: key: below the threshold = too weak to quantify, mostly under pKd 3.1 to 4
- reportedConditions: plain residues with an end cap or a label only (N-terminal biotin on a linker: ado-ado)
parameterMeasured: pKd

Here are 5 binders together with their reported answers.
| binder | pKd |
| --- | --- |
| TKEIPNCTSV [SORCS3, Q9UPU3] | 3.94 |
| HDDYFYHDEL [RCN2, Q14257] | below the threshold |
| GTMFLRETSL [GUCY1A2, P33402] | 4.24 |
| PSDSVGKDVF [EGLN1, Q9GZT9] | below the threshold |
| QQGLLPHSSC [TYRO3, Q06418] | below the threshold |

Prompt line: What measured pKd goes with EKPIDSETKM [SLC1A3, P43003] ?
Response line: below the threshold

Prompt line: Given the binder HYPASPDSWV [CTNND2, Q9UQB3] , what is its reported pKd?
Response line: below the threshold

Prompt line: Give the measured pKd of GSQSQVETEA [FKBP4, Q02790] .
Response line: below the threshold

Prompt line: Can you look up the measured pKd of NSTHNLKDYV [CLDN20, P56880] for me?
Response line: below the threshold

Prompt line: Find the recorded pKd belonging to PAALPESTHM [SLC9A3, P48764] and report it.
Response line: below the threshold

Prompt line: Which pKd reading was recorded for the binder VYEVPVETKF [SLC26A3, P40879] ?
Response line: below the threshold

Prompt line: Return reported pKd; argument: GVHSNDHSVV [LPAR1, Q92633]
Response line: below the threshold

Prompt line: What pKd value was documented for this binder, KPDKQEEFYA [SDC3, O75056] ?
Response line: below the threshold

Prompt line: Quick one: pKd of STYCDYTIEI [FAM71C, Q8NEG0] ?
Response line: below the threshold
